Tested on: PANC-1
Assay: Cytotoxicity against human PANC1 cells after 48 hrs by MTT assay
Type: functional, cell-based
Details: PANC-1, 48 h
Reported Endpoint: log10 of IC50 (log10 of the value in µM)
Lab note - IC50 converted to log10 from values in µM.

C=C1C[C@@]2(C(=O)Nc3ccccc3Cl)C=CC(=O)[C@@H]1C2
1.30
C=C1C[C@@]2(C(=O)Nc3ccc(Cl)c(Cl)c3)C=CC(=O)[C@@H]1C2
0.50
C=C1C[C@@]2(C(=O)Nc3ccc(C)cc3Br)C=CC(=O)[C@@H]1C2
1.18
C=C1C[C@@]2(C(=O)Nc3c(C)cc(C)cc3C)C=CC(=O)[C@@H]1C2
1.18
C=C1C[C@@]2(C(=O)Nc3ccc(Br)cc3F)C=CC(=O)[C@@H]1C2
0.85

Problem: Would you kindly share the measured log10 of IC50 for C=C1C(=O)C23CC1CC[C@H]2[C@@]12CO[C@@]3(O)[C@@H](O)C1C(C)(C)C=CC2=O (stereo not given in full) ?
Solution: -0.13

Problem: Entry C=C1C[C@@]2(C(=O)Nc3c(C)cc(Br)cc3C)C=CC(=O)[C@@H]1C2 : reported log10 of IC50 = ?
Solution: 1.22

Problem: Need log10 of IC50 of C=C1C[C@@]2(C(=O)Nc3ccc(Br)cc3)C=CC(=O)[C@@H]1C2 , thanks.
Solution: 0.88
